Biological target: T1, GST-NeDLG PDZ domain 2 (Rattus norvegicus (Rat)), Q62936
T1 chain: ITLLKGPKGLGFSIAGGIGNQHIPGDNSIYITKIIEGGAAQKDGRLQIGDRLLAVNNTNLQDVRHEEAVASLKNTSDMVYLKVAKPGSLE
Experiment: G assay titration, PDZ 5 ug/ml
metric: Kd (nM)
Report the figure in nM without appending any unit label.

## Task May I ask what Kd has been recorded for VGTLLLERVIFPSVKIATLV (modifications not checked) [AdenoE4 typ9] ?
## Result 100

The reported numbers originate from patent US20050282743A1.
